Catalogue of pIC50 Category (Activity) values
- TESTED TARGET: Recombinant human FAP (R&D systems, #3715-SE) (human, UniProt Q12884 26-760)
- Sequence (Q12884 26-760 limits assumed): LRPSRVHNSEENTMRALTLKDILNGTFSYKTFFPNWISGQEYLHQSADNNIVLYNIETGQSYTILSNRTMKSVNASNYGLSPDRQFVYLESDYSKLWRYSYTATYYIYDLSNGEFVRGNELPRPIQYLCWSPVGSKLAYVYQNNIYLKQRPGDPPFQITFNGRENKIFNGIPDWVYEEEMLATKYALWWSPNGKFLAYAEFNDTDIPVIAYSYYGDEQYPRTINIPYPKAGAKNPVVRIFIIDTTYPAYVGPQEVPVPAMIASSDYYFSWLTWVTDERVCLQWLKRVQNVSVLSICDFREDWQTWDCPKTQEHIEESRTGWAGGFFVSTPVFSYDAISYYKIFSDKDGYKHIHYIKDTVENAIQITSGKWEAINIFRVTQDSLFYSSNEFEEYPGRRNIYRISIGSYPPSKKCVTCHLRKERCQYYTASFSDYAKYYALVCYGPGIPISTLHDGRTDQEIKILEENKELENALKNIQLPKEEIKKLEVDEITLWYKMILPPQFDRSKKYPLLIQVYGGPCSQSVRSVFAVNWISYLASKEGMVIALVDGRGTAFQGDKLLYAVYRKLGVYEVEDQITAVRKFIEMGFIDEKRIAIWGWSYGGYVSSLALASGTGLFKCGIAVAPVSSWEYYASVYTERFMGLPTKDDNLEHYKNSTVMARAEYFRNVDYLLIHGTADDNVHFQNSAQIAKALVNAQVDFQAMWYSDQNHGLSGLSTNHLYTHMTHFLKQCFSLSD
- TEST PROTOCOL: cell-based or functional assay
Numbered stars: 1 amine (or outer) side, 2 acyl side, 3 side chain; on linkers, the order of the positions; unused ones are H or OH. Bridge positions count the residues as written; N and C are the ends. Square brackets hold non-standard residues; d marks the D form. * marks the point of attachment. Ttds = 1,13-diamino-4,7,10-trioxatridecan-succinamic acid, O=C(CCC(=O)[*:2])NCCCOCCOCCOCCCN[*:1]; DOTA = O=C(O)CN1CCN(CC(=O)O)CCN(CC(=O)*)CCN(CC(=O)O)CC1; Bip = N[C@@H](Cc1ccc(-c2ccccc2)cc1)C(=O)O; mXylylene = c1cc(C[*:1])cc(C[*:2])c1; 4Pal = N[C@@H](Cc1ccncc1)C(=O)O; NMeE = CN[C@@H](CCC(=O)O)C(=O)O; Aic = NC1(C(=O)O)Cc2ccccc2C1; 4Amb = NCc1ccc(C(=O)O)cc1; Nle = CCCC[C@H](N)C(=O)O; Hexanoyl = CCCCCC(=O)*; GABA = NCCCC(=O)O

BINDER | pIC50 Category (Activity)
Ac-MCPPTEFCDH[4Pal]RD-NH2 (linker 2-8 via mXylylene, also called 3BP-3191) [Ac-Met-[Cys(3MeBn)-Pro-Pro-Thr-Glu-Phe-Cys]-Asp-His-Ppa-Arg-Asp-NH2] | > 8 pIC50
{DOTA}-[Ttds][Nle]CPPTEFCD[4Amb]R-NH2 (linker 3-9 via mXylylene; SMILES CCCC[C@H](NC(=O)CCC(=O)NCCCOCCOCCOCCCNC(=O)CN1CCN(CC(=O)O)CCN(CC(=O)O)CCN(CC(=O)O)CC1)C(=O)N[C@H]1CSCc2cccc(c2)CSC[C@@H](C(=O)N[C@@H](CC(=O)O)C(=O)NCc2ccc(C(=O)N[C@@H](CCCNC(=N)N)C(N)=O)cc2)NC(=O)[C@H](Cc2ccccc2)NC(=O)[C@H](CCC(=O)O)NC(=O)[C@H]([C@@H](C)O)NC(=O)[C@@H]2CCCN2C(=O)[C@@H]2CCCN2C1=O, also called 3BP-3321) [DOTA-Ttds-Nle-[Cys(3MeBn)-Pro-Pro-Thr-Glu-Phe-Cys]-Asp-Pamb-Arg-NH2] | > 8 pIC50
Hexanoyl-CPPTEFCD[GABA]R-NH2 (linker 1-7 via mXylylene; SMILES CCCCCC(=O)N[C@H]1CSCc2cccc(c2)CSC[C@@H](C(=O)N[C@@H](CC(=O)O)C(=O)NCCCC(=O)N[C@@H](CCCNC(=N)N)C(N)=O)NC(=O)[C@H](Cc2ccccc2)NC(=O)[C@H](CCC(=O)O)NC(=O)[C@H]([C@@H](C)O)NC(=O)[C@@H]2CCCN2C(=O)[C@@H]2CCCN2C1=O, also called 3BP-3300) [Hex-[Cys(3MeBn)-Pro-Pro-Thr-Glu-Phe-Cys]-Asp-Gab-Arg-NH2] | > 8 pIC50
Hexanoyl-CPPT[NMeE]FC-NH2 (linker 1-7 via mXylylene; SMILES CCCCCC(=O)N[C@H]1CSCc2cccc(c2)CSC[C@@H](C(N)=O)NC(=O)[C@H](Cc2ccccc2)NC(=O)[C@H](CCC(=O)O)N(C)C(=O)[C@H]([C@@H](C)O)NC(=O)[C@@H]2CCCN2C(=O)[C@@H]2CCCN2C1=O) [Hex-[Cys(3MeBn)-Pro-Pro-Thr-Nme-Phe-Cys]-NH2] | ≤ 6 pIC50
Ac-[dM]CPPTEFCDHFRD-NH2 (linker 2-8 via mXylylene; SMILES CSCC[C@@H](NC(C)=O)C(=O)N[C@H]1CSCc2cccc(c2)CSC[C@@H](C(=O)N[C@@H](CC(=O)O)C(=O)N[C@@H](Cc2c[nH]cn2)C(=O)N[C@@H](Cc2ccccc2)C(=O)N[C@@H](CCCNC(=N)N)C(=O)N[C@@H](CC(=O)O)C(N)=O)NC(=O)[C@H](Cc2ccccc2)NC(=O)[C@H](CCC(=O)O)NC(=O)[C@H]([C@@H](C)O)NC(=O)[C@@H]2CCCN2C(=O)[C@@H]2CCCN2C1=O, also called 3BP-3187) [Ac-met-[Cys(3MeBn)-Pro-Pro-Thr-Glu-Phe-Cys]-Asp-His-Phe-Arg-Asp-NH2] | > 8 pIC50
CPPTQFX (not fully specified; N-term Hex; X7 = AET (2-aminoethanethiol, no carboxyl group); Cys1/AET7 thioether-bridged by tMeBn carrying InDOTA-AET (indium complex), also called 3BP-3713) [Hex-[Cys(tMeBn(InDOTA-AET))-Pro-Pro-Thr-Gln-Phe-AET]] | > 8 pIC50
Ac-MCPPTEFCDH[Aic]RD-NH2 (linker 2-8 via mXylylene; SMILES CSCC[C@H](NC(C)=O)C(=O)N[C@H]1CSCc2cccc(c2)CSC[C@@H](C(=O)N[C@@H](CC(=O)O)C(=O)N[C@@H](Cc2c[nH]cn2)C(=O)NC2(C(=O)N[C@@H](CCCNC(=N)N)C(=O)N[C@@H](CC(=O)O)C(N)=O)Cc3ccccc3C2)NC(=O)[C@H](Cc2ccccc2)NC(=O)[C@H](CCC(=O)O)NC(=O)[C@H]([C@@H](C)O)NC(=O)[C@@H]2CCCN2C(=O)[C@@H]2CCCN2C1=O, also called 3BP-3190) [Ac-Met-[Cys(3MeBn)-Pro-Pro-Thr-Glu-Phe-Cys]-Asp-His-Aic-Arg-Asp-NH2] | > 8 pIC50
Hexanoyl-CPPTEFCDR-NH2 (linker 1-7 via mXylylene; SMILES CCCCCC(=O)N[C@H]1CSCc2cccc(c2)CSC[C@@H](C(=O)N[C@@H](CC(=O)O)C(=O)N[C@@H](CCCNC(=N)N)C(N)=O)NC(=O)[C@H](Cc2ccccc2)NC(=O)[C@H](CCC(=O)O)NC(=O)[C@H]([C@@H](C)O)NC(=O)[C@@H]2CCCN2C(=O)[C@@H]2CCCN2C1=O, also called 3BP-3299) [Hex-[Cys(3MeBn)-Pro-Pro-Thr-Glu-Phe-Cys]-Asp-Arg-NH2] | > 8 pIC50
Hexanoyl-CPPTEFC[4Amb]R-NH2 (linker 1-7 via mXylylene; SMILES CCCCCC(=O)N[C@H]1CSCc2cccc(c2)CSC[C@@H](C(=O)NCc2ccc(C(=O)N[C@@H](CCCNC(=N)N)C(N)=O)cc2)NC(=O)[C@H](Cc2ccccc2)NC(=O)[C@H](CCC(=O)O)NC(=O)[C@H]([C@@H](C)O)NC(=O)[C@@H]2CCCN2C(=O)[C@@H]2CCCN2C1=O, also called 3BP-3303) [Hex-[Cys(3MeBn)-Pro-Pro-Thr-Glu-Phe-Cys]-Pamb-Arg-NH2] | > 8 pIC50
Hexanoyl-CPPTE[Bip]C-NH2 (linker 1-7 via mXylylene; SMILES CCCCCC(=O)N[C@H]1CSCc2cccc(c2)CSC[C@@H](C(N)=O)NC(=O)[C@H](Cc2ccc(-c3ccccc3)cc2)NC(=O)[C@H](CCC(=O)O)NC(=O)[C@H]([C@@H](C)O)NC(=O)[C@@H]2CCCN2C(=O)[C@@H]2CCCN2C1=O) [Hex-[Cys(3MeBn)-Pro-Pro-Thr-Glu-Bip-Cys]-NH2] | ≤ 6 pIC50
